// values below are reported Inhibition (%) of the PGD2 Amount in Bronchoalveolar Lavage Fluid
# Test system: PGD2 amount in bronchoalveolar lavage fluid
# Test Description: Inhibitory activity for prostaglandin D2 production into bronchoalveolar lavage fluid in rats (Experiment 2)
# Format: in vivo, Brawn Norway rats
# Measurement Setup: 10 mg/kg orally two hours before antigen inhalation; lavage fluid one hour after ovalbumin inhalation; sensitized rats
# Procedure: A physiological saline solution containing 1 mg of ovalbumin and 4 mg of alum was subcutaneously injected into the backs of 7-week-old male Brawn Norway rats in an amount of 1 mL/body, and 0.06 mg of killed pertussis bacteria were intraperitoneally injected into each rat to perform active sensitization. Fourteen days after sensitization, the rats inhaled 2% ovalbumin for 10 minutes. […] The amount of PGD2 in the bronchoalveolar lavage fluid was determined using an EIA kit. […]
Observed Property: Inhibition (%) of the PGD2 Amount in Bronchoalveolar Lavage Fluid

>  <Molecule Smiles>
Cc1[nH]c(C#N)c(C)c1-c1nc2cc(C(=O)c3ccccc3)ccc2[nH]1

>  <Measure Unit>
%

>  <Reading Qualifier>
=

>  <Numeric Value>
48

$$$$
>  <Molecule Smiles>
Cc1oc(C(=O)N2CCCC2)c(C)c1-c1nc2cc(C(=O)c3ccccc3)ccc2[nH]1

>  <Measure Unit>
%

>  <Reading Qualifier>
=

>  <Numeric Value>
36

$$$$
>  <Molecule Smiles>
Cc1[nH]c(C(=O)N2CCC=N2)c(C)c1-c1nc2cc(C(=O)c3ccccc3)ccc2[nH]1

>  <Measure Unit>
%

>  <Reading Qualifier>
=

>  <Numeric Value>
88

$$$$
>  <Molecule Smiles>
Cc1[nH]c(C(=O)N2CCOCC2)c(C)c1-c1nc2cc(C(=O)c3ccccc3)ccc2[nH]1

>  <Measure Unit>
%

>  <Reading Qualifier>
=

>  <Numeric Value>
65

$$$$
>  <Molecule Smiles>
CON(C)C(=O)c1[nH]c(C)c(-c2nc3cc(C(=O)c4ccccc4)ccc3[nH]2)c1C

>  <Measure Unit>
%

>  <Reading Qualifier>
>

>  <Numeric Value>
72

$$$$

----------
# Measured Target: human hematopoietic synthase (Homo sapiens)
# Sequence (O60760 whole entry): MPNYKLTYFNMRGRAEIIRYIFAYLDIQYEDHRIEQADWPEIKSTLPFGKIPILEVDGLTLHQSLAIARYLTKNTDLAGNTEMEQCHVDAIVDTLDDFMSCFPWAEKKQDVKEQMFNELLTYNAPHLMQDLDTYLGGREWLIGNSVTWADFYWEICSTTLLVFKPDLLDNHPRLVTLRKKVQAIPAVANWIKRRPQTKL
Observed Property: IC50

>  <Compound>
O=C(c1ccccc1)c1ccc2[nH]c(-c3ccc(C(=O)N4CCCC4)o3)nc2c1 [Compound 59]

>  <Observed Property>
IC50

>  <Result>
3560 nM

$$$$
>  <Compound>
Cc1[nH]c(C(=O)NCC(=O)O)c(C)c1-c1nc2cc(C(=O)c3ccccc3)ccc2[nH]1 [Compound 22]

>  <Observed Property>
IC50

>  <Result>
829 nM

$$$$
>  <Compound>
O=C(c1ccccc1)c1ccc2[nH]c(-c3ccc(P(=O)(O)O)o3)nc2c1 [Comparative Example 3, dihydrate, reference compound]

>  <Observed Property>
IC50

>  <Result>
29300 nM

$$$$
>  <Compound>
Cc1[nH]c(C(=O)NCCN2CCCC2)c(C)c1-c1nc2cc(C(=O)c3ccccc3)ccc2[nH]1 [Compound 23]

>  <Observed Property>
IC50

>  <Result>
223 nM

$$$$
>  <Compound>
Cc1[nH]c(C(=O)N(C)C)c(C)c1-c1nc2cc(C(=O)c3ccccc3)ccc2[nH]1 [Compound 64]

>  <Observed Property>
IC50

>  <Result>
377 nM

$$$$
>  <Compound>
Cc1oc(C(=O)NCc2ccc3c(c2)OCO3)c(C)c1-c1nc2cc(C(=O)c3ccccc3)ccc2[nH]1 [Compound 4]

>  <Observed Property>
IC50

>  <Result>
278 nM

$$$$
>  <Compound>
CCOC(=O)c1[nH]c(C)c(-c2nc3cc(Sc4ccncc4)c(Oc4ccccc4)cc3[nH]2)c1C [Comparative Example 1, reference compound]

>  <Observed Property>
IC50

>  <Result>
> 30000 nM

$$$$
>  <Compound>
Cc1cc(C)c(-c2nc3cc(C(=O)c4ccccc4)ccc3[nH]2)[nH]1 [Compound 52]

>  <Observed Property>
IC50

>  <Result>
4800 nM

$$$$
>  <Compound>
CNC(=O)c1[nH]c(C)c(-c2nc3cc(C(=O)c4ccccc4)ccc3[nH]2)c1C [Compound 66]

>  <Observed Property>
IC50

>  <Result>
77 nM

$$$$
>  <Compound>
Cc1[nH]c(C(=O)Nc2ccc3[nH]ccc3c2)c(C)c1-c1nc2cc(C(=O)c3ccccc3)ccc2[nH]1 [Compound 28]

>  <Observed Property>
IC50

>  <Result>
73 nM

$$$$
>  <Compound>
Cc1[nH]c(C(=O)N2CCC=N2)c(C)c1-c1nc2cc(C(=O)c3ccccc3)ccc2[nH]1 [Compound 42]

>  <Observed Property>
IC50

>  <Result>
63 nM

$$$$
>  <Compound>
Cc1[nH]c(C(=O)N2CCC(C(=O)NCCN(C)C)CC2)c(C)c1-c1nc2cc(C(=O)c3ccccc3)ccc2[nH]1 [Compound 46]

>  <Observed Property>
IC50

>  <Result>
758 nM

$$$$
>  <Compound>
Cc1oc(C(=O)N2CCCC2)c(C)c1-c1nc2cc(C(=O)c3ccccc3)ccc2[nH]1 [Compound 3]

>  <Observed Property>
IC50

>  <Result>
178 nM

$$$$
>  <Compound>
Cc1c[nH]c(C)c1-c1nc2cc(C(=O)c3ccccc3)ccc2[nH]1 [Compound 7]

>  <Observed Property>
IC50

>  <Result>
588 nM

$$$$
>  <Compound>
Cc1[nH]c(C(=O)O)c(C)c1-c1nc2cc(C(=O)c3ccccc3)ccc2[nH]1 [Compound 10]

>  <Observed Property>
IC50

>  <Result>
436 nM

$$$$
>  <Compound>
Cc1[nH]c(C(=O)NCO)c(C)c1-c1nc2cc(C(=O)c3ccccc3)ccc2[nH]1 [Compound 67]

>  <Observed Property>
IC50

>  <Result>
109 nM

$$$$
>  <Compound>
CN(C)Cc1ccc(-c2nc3cc(C(=O)c4ccccc4)ccc3[nH]2)o1 [Compound 56]

>  <Observed Property>
IC50

>  <Result>
4780 nM

$$$$
